# Test system: Liver
# assay_protocol: Biodistribution in liver of B16F0 tumor bearing C57BL/6J mouse at 0.37-0.74 MBq, iv after 24 hrs
# Type: ADME, organism-based
# assay_setup: in vivo
test_readout: Drug uptake (% ID/g)

Sample records with Drug uptake:
Lookup: Entry `CCN(CC)CCNC(=O)c1cc([123I])c(NS(C)(=O)=O)cc1OC` : reported Drug uptake = ?
Found: 0.28

Lookup: Next entry: `CCN(CC)CCNC(=O)c1cc([123I])c(NS(=O)(=O)c2ccc(C)cc2)cc1OC`
Found: 0.21

A. CCN(CC)CCNC(=O)c1cc([123I])c(NC(C)=O)cc1OC
B. O=C(NC1CCN(CCF)CC1)c1ccc(I)cc1
C. O=C(NC1CCN(CCO)CC1)c1ccc([123I])cc1
D. CCCN(CCC)CCCCNC(=O)c1cc([123I])c(NC(C)=O)cc1OC
Lookup: Would you mind ranking these compounds by ascending Drug uptake? Answer by listing the labels in the requested order.
Found: B, D, A, C

* * *

# test_system: Sigma non-opioid intracellular receptor 1 (Cavia porcellus)
# Sequence (Q60492 whole entry): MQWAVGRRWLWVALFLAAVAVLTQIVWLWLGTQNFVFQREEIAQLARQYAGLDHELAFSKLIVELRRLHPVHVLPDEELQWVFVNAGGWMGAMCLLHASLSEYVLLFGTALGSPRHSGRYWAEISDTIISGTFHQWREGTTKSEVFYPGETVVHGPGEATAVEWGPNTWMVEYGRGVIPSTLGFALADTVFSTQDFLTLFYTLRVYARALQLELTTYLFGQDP
# assay_protocol: Displacement of [3H](+)-pentazocine from sigma 1 receptor in guinea pig brain membrane
# Assay type: cell membranes
pKi: −log10 of the molar value.
test_readout: pKi

Lookup: Entry `CCN(CC)CCNC(=O)c1cc(I)c(NC(C)=O)cc1OC` : reported pKi = ?
Found: 5.78

Lookup: Same question, `COc1cc(NC(C)=O)c(I)cc1C(=O)NCCCCN(C)C(C)C` this time
Found: 5.28

Lookup: Moving on to the next compound: `CCN(CC)CCNC(=O)c1cc(I)c(NS(=O)(=O)c2ccc(C)cc2)cc1OC`
Found: 6.19

a. CCCN(CCC)CCCCNC(=O)c1ccc(I)cc1
b. CCN(CC)CCNC(=O)c1cc(I)c(NS(C)(=O)=O)cc1OC
Lookup: Given the two records a and b , choose the one whose pKi value is lower. // respond with label for picked entry
Found: a

* * *

# assay_protocol: Biodistribution in melanoma of B16F0 tumor bearing C57BL/6J mouse at 0.37-0.74 MBq, iv after 6 hrs
# Assay type: ADME, organism-based, B16-F0
# assay_setup: in vivo
test_readout: Drug uptake (% ID/g)

Guide cases for Drug uptake, answers given:
Lookup: Could you tell me which Drug uptake is on file for `CCCN(CCC)CCCCNC(=O)c1ccc([123I])cc1` ?
Found: 7.5

Lookup: Continue with `CCN(CC)CCNC(=O)c1cc([123I])c(NS(=O)(=O)c2ccc(C)cc2)cc1OC`
Found: 2.6

A. O=C(NC1CCN(CCO)CC1)c1ccc([123I])cc1
B. O=C(NCCCCN1CC2CCC1C2)c1ccc([123I])cc1 (stereo not drawn)
Lookup: Given the listed records, identify the one among A and B with higher Drug uptake. Respond using the label that marks the chosen record.
Found: A

P. COc1cc(NC(C)=O)c([123I])cc1C(=O)NCCCCN(C)C(C)C
Q. CCCCNCCCCNC(=O)c1cc([123I])c(NC(C)=O)cc1OC
Lookup: Hi team, can someone confirm which has the larger Drug uptake: P or Q ? Thanks. State the label of the item chosen.
Found: P
(P: 6 % ID/g, Q: 3.4 % ID/g)

P. CCN(CC)CCNC(=O)c1cc([123I])c(NC(C)=O)cc1OC
Q. O=C(NC1CCN(CCF)CC1)c1ccc(I)cc1
Lookup: Hi! Which is lower in terms of Drug uptake, the first one P or the second one Q ? Could you answer with the label of the item you picked?
Found: P
(P: 8.5 % ID/g, Q: 12.5 % ID/g)

a. CCCN(CCC)CCCCNC(=O)c1cc([123I])c(NC(C)=O)cc1OC
b. COc1cc(NC(C)=O)c([123I])cc1C(=O)NCCCCN1CC2CCC1C2 (stereo not drawn)
Lookup: Which has the smaller recorded Drug uptake, a or b ? Answer with the label corresponding to your selection.
Found: b
